# System: MOLT-4 leukemia
# method.description: NCI tumour cell line growth inhibition, 48 h
Measured TGI values are reported for all entries that follow.

| compound | TGI |
| --- | --- |
| N/C(=N\S(=O)(=O)c1cc(Cl)c(Oc2ccc([N+](=O)[O-])cc2Cl)c(Cl)c1)Nc1ccc(Cl)cc1 | 34.2 µM |

Requested read-out: TGI. Entry: `CC(=O)/C(C=Nc1c(C)n(C)n(C)c1=O)=C(/O)c1ccccc1`
> 50 µM

Queued: Cc1ccc(-c2cc(-c3ccco3)c(C#N)c(=O)n2C2OC(CO)C(O)C(O)C2O)cc1 (centres undefined)
> 100 µM

Same again, this time with `CN(C)CCOC(=O)Nc1nc2ccc(Sc3ccccc3)cc2[nH]1`
20.1 µM

Could you do the same for `CCCCc1c2c(c(C)c3c1C(=O)OC3)Oc1ccccc1O2` , please?
> 100 µM

Same for `O=C(N/N=C/C=C/c1ccc([N+](=O)[O-])o1)c1ccc(C(=O)N/N=C/C=C/c2ccc([N+](=O)[O-])o2)cc1`
> 43.6 µM

Proceed to CC1=CCC2CC1NC(=O)CCOCCC(=O)NC2(C)C (centres undefined)
> 100 µM

// next record C#CC1NC(=O)C1N(CC)CC (centres undefined)
> 100 µM

Entry `CC(C)[C@@H](C)[C@@]1(C)C[C@@H]1[C@@H](C)[C@H]1CC[C@@H]([C@@H]2CC=C3C[C@@H](O)CC[C@]3(C)C2=O)[C@]1(C)CCO` please
19.3 µM

* * *

# Tested on: K-562 leukemia
# method.description: NCI tumour cell line growth inhibition, 48 h
experimental.endpoint: TGI

In the examples that follow, each entry is paired with its recorded TGI.
| compound | TGI |
| --- | --- |
| CCn1ccc(NS(=O)(=O)c2ccc(N)cc2)nc1=O | > 100 µM |
| COc1ccc2c(c1)C(=O)c1c-2c(Nc2cccc(C(C)=O)c2)nc2ccccc12 | > 100 µM |
| CCCCCC[C@H](C)NC(=O)c1ccc(Nc2nc3ccccc3c3occc23)cc1 | > 100 µM |

Value wanted: TGI (K-562 leukemia) of entry `Cn1c(N=P(c2ccccc2)(c2ccccc2)c2ccccc2)c([N+](=O)[O-])c(=O)n(C)c1=O`
> 100 µM

What about CC1C(c2ccccc2O)c2cc3c(cc2OC1N1CCOCC1)OCO3 (stereo unspecified) ?
90.6 µM

Do the same for `COC(=O)/C(C#N)=C(\N)c1c(C)c2ccccc2oc1=N` please
> 100 µM

Please answer likewise for `CC1CC[P+](c2ccccc2)(c2ccccc2)CC1`
> 100 µM

What would you report for CCCCCCCCC/C=C1/CC(CO)(COC(=O)c2ccccc2)OC1=O (stereo unspecified) ?
22.5 µM

Continue with `CCN(CC)CCn1c2ccccc2c(=O)c2c(OC)ccc(OC)c21`
> 100 µM

`COc1cc2c[n+](C)c3c4cc(OC)c(OC)cc4ccc3c2cc1OC` ?
> 100 µM

Could you do the same for `Cc1cc(=O)oc2cc(OC/C=C3\CCC(=O)O3)ccc12` , please?
7.84 µM

* * *

# Test system: OVCAR-3 ovarian
# method.description: NCI tumour cell line growth inhibition, 48 h
As shown below, each of these compounds has a reported TGI value.

The examples below pair each entry with its known result.
| compound | target | obs.value |
| --- | --- | --- |
| O=C1c2ccccc2C(=O)c2c(NCCCN3CCOCC3)ccc(NCCCN3CCOCC3)c21 | OVCAR-3 ovarian | 40.3 µM |
| CCCCC(=O)Nc1ccc2c(C)cc(-c3ccc(-c4cc(-c5ccc(C)cc5)cc(-c5ccc(-c6cc(C)c7ccc(NC(=O)CCCC)nc7n6)cc5)n4)cc3)nc2n1 | OVCAR-3 ovarian | > 100 µM |
| Nc1nc(=S)n(-c2ccc(Cl)cc2)c2nc3ccccc3cc12 | OVCAR-3 ovarian | > 100 µM |
| CCCCCCCCCCCCCB(O)O | OVCAR-3 ovarian | > 100 µM |
| O=c1c2cc(I)ccc2nc(-c2cccs2)n1/N=C/c1ccccc1 | OVCAR-3 ovarian | > 100 µM |

Please give the measured TGI for this compound: COc1ccc2c(c1OC(C)=O)C1=CC(=O)CCC13CCNC3C2 (stereo unspecified)
> 100 µM

Do the same for `COc1cc(/C=N/NC2=NCCCCN2)ccc1O` please
> 100 µM

Then CC1(C)C2CCC(O)(C2)C1N (stereo unspecified) ?
> 100 µM

Subsequent entry: COC(=O)/C(=N\NC(N)=O)C(C(=O)C=C(C)C)C(=O)C(=O)Nc1ccc(Cl)c(Cl)c1 (stereo unspecified)
> 100 µM

Entry to check: `COc1ccc(/C(=N\Nc2ccccn2)c2ccccn2)cc1`
19.5 µM

And then `CN(C(=O)c1ccco1)C(=S)N1CCN(c2ccccn2)CC1` , what is it?
> 100 µM

Please give the result for `O=P(O)(CN1CCN(CP(=O)(O)c2ccccc2)CCN(CP(=O)(O)c2ccccc2)CC1)c1ccccc1` too.
> 100 µM

How about this compound: `C1CN2CCNCCN(CCN1)CC2`
> 100 µM

Also check `COc1cnc2c(c1)C(=O)c1c-2n(CCCN2CCNCC2)c(=O)c2cc([N+](=O)[O-])ccc12`
2.63 µM

Quick one: CSCCC(C(=O)O)N(CC1(O)OCC(O)C(O)C1O)N=O (stereo unspecified)
> 100 µM

Item: `CN1CCN(Cc2ccc(NC(=O)c3cncc(C#Cc4cnc(N)c5cnccc45)c3)cc2C(F)(F)F)CC1`
8.43 µM

Now consider CC(=O)OCC1OC(n2nc(Cc3ccccc3)c(=S)[nH]c2=S)C(OC(C)=O)C(OC(C)=O)C1OC(C)=O (stereo unspecified) .
41.2 µM

* * *

# Tested on: SN12C renal
# method.description: NCI tumour cell line growth inhibition, 48 h
experimental.endpoint: TGI (µM)
# number only, unit µM dropped from output

| smiles.string | endpoint.unit | obs.value |
| --- | --- | --- |
| COc1cc(/C=C2\C[C@H]3[C@@H]4CC=C5C[C@@H](OC(C)=O)CC[C@]5(C)[C@H]4CC[C@]3(C)[C@H]2OC(C)=O)ccc1OCCN1CCCC1 | µM | 15.7 |
| CCCCc1c2c(c(C)c3c1C(=O)OC3)Oc1ccccc1O2 | µM | 38.3 |

Turning now to a further record.
So what's the measured TGI for this one? `CN1CCN(Cc2ccc(NC(=O)c3cncc(C#Cc4cnc(N)c5cnccc45)c3)cc2C(F)(F)F)CC1`
5.86

* * *

Each entry below carries its reported TGI.
# System: U251 CNS
# method.description: NCI tumour cell line growth inhibition, 48 h
Record the value in µM, omitting the unit from your answer.

| molecule | experimental.endpoint | obs.value |
| --- | --- | --- |
| O=C(NCCCN1CCN(CCCNC(=O)Nc2cccc3ccccc23)CC1)Nc1cccc2ccccc12 | TGI | 18.9 |
| CCC[CH2][Pb]([Cl])([CH2]CCC)[CH2]CCC | TGI | 0.0304 |

Shift focus to the following entry.
Entry CC1=C([Se]CC(OC(=O)[C@@H](CO)NC(=O)OC(C)(C)C)C(=O)NCCCCCC(=O)OCc2ccccc2)C(=O)c2ccccc2C1=O (some centres not stated) has what TGI?
2.17

* * *

# TGI values compiled below
# Tested on: HCT-116 colon
# method.description: NCI tumour cell line growth inhibition, 48 h

| compound | obs.value |
| --- | --- |
| O=c1c2c(c1=O)-c1ccccc1CN2 | > 100 µM |
| CCCCCCCC(=O)[O][Hg][CH2]C1COC([CH2][Hg][O]C(=O)CCCCCCC)CO1 (stereo unspecified) | 8.26 µM |
| CCO/C(Cc1ccc(Cl)cc1)=N/NC(N)=S | > 100 µM |
| COc1ccc(C(=O)/C=C/c2ccc(OCC(=N)N)cc2)cc1 | 16.7 µM |
| CN(C)c1ccc(/C=C/c2cc(-c3ccccc3)[n+](C)n2-c2ccccc2)cc1 | 14.1 µM |

// moving on: another record for TGI
Entry `N#Cc1c(N2CCN(c3ccc([N+](=O)[O-])cc3)CC2)[n+](=O)c2ccccc2n1[O-]` has what TGI?
> 100 µM

* * *

List of log10 of TGI values.
# Test system: LOX IMVI melanoma
# method.description: NCI tumour cell line growth inhibition, 48 h
Please be aware that the numbers have been log10-transformed from TGI in µM.

| compound | target | experimental.endpoint | obs.value |
| --- | --- | --- | --- |
| O=C1C=CC2(C=C1)C[C@H](NC(=O)OCc1ccccc1)C(=O)O2 | LOX IMVI melanoma | log10 of TGI | 1.50 |
| Cc1nnc(Sc2nc(C#N)c(C#N)nc2Sc2nnc(C)s2)s1 | LOX IMVI melanoma | log10 of TGI | 0.96 |
| Cc1ccc(N2C(N)=C(C#N)C(C#N)(C#N)C2c2ccccc2)cc1 (stereo not drawn) | LOX IMVI melanoma | log10 of TGI | 1.38 |
| Fc1ccc(Nc2nc3ccccc3c3occc23)cc1 | LOX IMVI melanoma | log10 of TGI | 1.25 |
| COc1cccc(-c2c(-c3ccccc3)[nH]c(C)c2C(=O)ONC(=O)c2ccccc2)c1 | LOX IMVI melanoma | log10 of TGI | 0.59 |
| CC[C@H](C)[C@H](NC(=O)[C@@]1(O)[C@H](O)[C@]2(CC)C=CCN3CC[C@@]4(c5cc(Br)c(OC)cc5N(C)[C@@H]14)[C@@H]32)C(=O)OC | LOX IMVI melanoma | log10 of TGI | 1.55 |
| O=C1c2ccccc2C(=O)c2c(NCCCN3CCOCC3)ccc(NCCCN3CCOCC3)c21 | LOX IMVI melanoma | log10 of TGI | 0.56 |

--- query ---
For LOX IMVI melanoma, provide log10 of TGI of `c1ccc([P+](CCCCCC[P+](c2ccccc2)(c2ccccc2)c2ccccc2)(c2ccccc2)c2ccccc2)cc1` please.
1.59

Data provenance is PubChem BioAssay (NCI).
